B1: tRNA (parent)
chain: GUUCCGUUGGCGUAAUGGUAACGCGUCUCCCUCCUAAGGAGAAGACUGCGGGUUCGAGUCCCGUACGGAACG

# Variants of: B1
# Measurement Notes: yeast fitness relative to wild type (ratio to wild type); higher = fitter; tRNA-Arg(CCU), competitive growth, 37 C, YPD
Variants at the floor of the assay were thinned out.
Assay Metric: yeast fitness
When you answer, write just the number.

Asked: Report yeast fitness for U47A A70G please.
Given back: 0.921

Asked: Report yeast fitness for G6A U19C please.
Given back: 0.99

Asked: Report yeast fitness for U53A C55G please.
Given back: 0.588

Asked: Report yeast fitness for U7G C30A A69C please.
Given back: 0.798

Asked: Report yeast fitness for G25C A43U G50A please.
Given back: 0.704

Asked: Report yeast fitness for A43C G52A please.
Given back: 0.887

Asked: Report yeast fitness for A45C U53C please.
Given back: 0.823

Asked: Report yeast fitness for C5U A20C U53A please.
Given back: 0.544

Asked: Report yeast fitness for U16G G68A please.
Given back: 0.967

Asked: Report yeast fitness for U13G C24G A36C A40U G48A please.
Given back: 0.525

Asked: Report yeast fitness for C27U C55U please.
Given back: 0.773

Asked: Report yeast fitness for A36G U53A please.
Given back: 0.754

Asked: Report yeast fitness for A21G G23C C31U C34G A43G A45C A57U please.
Given back: 0.574

Asked: Report yeast fitness for C5U G41A please.
Given back: 0.906

Asked: Report yeast fitness for C24U C46G A65U please.
Given back: 0.782

Asked: Report yeast fitness for U3C U59C please.
Given back: 0.961

Asked: Report yeast fitness for U2A U8A please.
Given back: 0.811

Asked: Report yeast fitness for U7A C66U please.
Given back: 0.762

Asked: Report yeast fitness for C33G A40G C66G please.
Given back: 0.698

Asked: Report yeast fitness for G6A G10C C30A A69U please.
Given back: 0.786

Asked: Report yeast fitness for G17C U19A C49G please.
Given back: 0.517

Asked: Report yeast fitness for U28G A36G A45G A69U please.
Given back: 0.825

Asked: Report yeast fitness for C55A A65U please.
Given back: 0.572

Asked: Report yeast fitness for A21U C29G please.
Given back: 0.561

Asked: Report yeast fitness for A40G G56A please.
Given back: 0.998

Asked: Report yeast fitness for C30G C34U U47A C49A please.
Given back: 0.691

Asked: Report yeast fitness for C46A C49G C55U please.
Given back: 0.563

Asked: Report yeast fitness for G9A C22A please.
Given back: 0.919

Asked: Report yeast fitness for G6A G9C G44C please.
Given back: 0.605

Asked: Report yeast fitness for C31U U59C please.
Given back: 1.02
